Reference source for all entries: PubChem BioAssay (NCI)

protocolDetails: NCI Yeast Anticancer Drug Screen. Data for the sgs1 mgt1 strain (AID 161);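 further: 0% = growth of cultures given vehicle only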
protocolConditions: S. cerevisiae sgs1 mgt1 strain, at 50.0 µM
This is part of a sample that, as a whole, favours compounds with a hit. Of some 79,000 tested, about 15% had one in any assay. Calls of active or inactive are those of the source. No stated cut-off is given here; in the data, active means growth inhibition above about 70%; inactive means the rest. Where a SMILES comes first, the peptide text is derived from it. [ ]: non-standard residue; d: D form. The star is where a group is joined. ξ: configuration not given here. ξD = NC(CC(=O)O)C(=O)O; Boc = CC(C)(C)OC(=O)*; Aib = CC(C)(N)C(=O)O; OBn = c1ccc(CO*)cc1
Allowed answers: class 1 = active, class 0 = inactive

// param item: COC(=O)C(C)CC(=O)c1ccc2ccc3cccc4ccc1c2c34 (stereo unspecified) ; yields the recorded call class 0

Answer briefly: the call reported for NC(=O)/C(N=Nc1ccccc1)=N\Nc1ccccc1 in this assay. class 1

// outcome(item) with item = O=CC1N=C(Cc2ccccc2)OC1=O (stereo unspecified) class 0

For C(#CC[P+](c1ccccc1)(c1ccccc1)c1ccccc1)C[P+](c1ccccc1)(c1ccccc1)c1ccccc1 , which call appears in the assay record? class 0

Which outcome was entered for the compound COc1cc(CNc2cnc3cc(N)ccc3n2)cc(OC)c1OC in this test? class 0

Recorded test outcome, item N#CCCN(CCC#N)C(Cc1cn(CCC#N)cn1)C(=O)O (stereo unspecified) class 0

Lab log entry: COc1ccc(C2(c3ccc(OC)cc3)c3ccccc3Cc3c(OC)cccc32)cc1 — outcome as called in the assay? class 0

Per the records of this test, what outcome belongs to C[N+]1(CC(O)c2ccccc2)CCCC1 (stereo unspecified) ? class 0

Write down the call the test reported for this compound. Item: CC1(C)CNCC2(C)OCCCOC3(C)CNCC(C)(C)NC(=O)C(C)(CNCC(C)(C)NC3=O)OCCCOC(C)(CNCC(C)(C)NC2=O)C(=O)N1 class 0

Hi, do you know how CC(C)(C)OC(=O)NC(CC(=O)OCc1ccccc1)C(=O)NC(C)(C)C(N)=O (stereo unspecified) (Boc-[ξD](OBn)-[Aib]-NH2) came out in this test? class 0

Any idea what this test logged for CC1CC[N+](C)([B-](F)(F)F)CC1 (stereo unspecified) ? class 0

GET /call?item= Cc1cn(C2CC(N(C)C)C(CO)O2)c(=O)[nH]c1=O (stereo unspecified) returns the recorded outcome of this test. class 0

How was N#CCCN(c1ccc(C=Nc2ccccc2Cl)cc1)S(=O)(=O)c1ccccc1 classified in this test? class 0

Fill in: this test's call for CN(C)N=Nc1ccc(C(=O)N/N=C/c2ccccc2[N+](=O)[O-])cc1 is ___ class 0

Hi, sorry to bother you, what did the test record for O=c1oc2ccccc2cc1S(=O)(=O)c1ccccc1 ? class 0

// outcome(item) with item = CCN(CC)CCOC(=O)c1ccc(N)c2ccccc12 class 0

Test call, this compound: CCCc1c(C)[nH]c2ccccc12 class 0

What was the test verdict on CC1C(c2ccccc2)=NN(C)c2ccccc21 (stereo unspecified) ? class 0

Record request — test call for O=C(O)CCSc1ccccc1[N+](=O)[O-] class 0

Field: outcome | Entry: O=C(CBr)c1cc2ncccc2c2ccccc12 class 0

Could you check what this test reported for COc1ccccc1N=Nc1c(-c2ccccc2)nn(C(=O)CC(=O)Nc2cccc(C)c2)c1-c1ccccc1 ? class 0

Please state the recorded outcome for this compound: NCCSSCCCCSSCCN class 0

// outcome(item) with item = CC(=O)Nc1ccc(S(=O)(=O)n2c(=O)oc3cc(Br)ccc32)cc1 class 0

Per the records of this test, what outcome belongs to CCc1c(C)c2cc(N)ccc2[nH]c1=O ? class 0

Per the assay record, what outcome was assigned to O=C(Nc1ccc(NC(=O)Nc2cc(C(F)(F)F)ccc2Oc2ccc(Cl)c(Cl)c2)cc1)Nc1cc(C(F)(F)F)ccc1Oc1ccc(Cl)c(Cl)c1 ? class 0

Can you look up the reported call for c1ccc2cc3c(cc2c1)OP1(=NP2(=NP4(=N1)Oc1cc5ccccc5cc1O4)Oc1cc4ccccc4cc1O2)O3 for me? class 0

In this assay, the call recorded for CC(=O)N(/C=C\C1=[N+](C)CCS1)c1ccccc1 was what? class 0

Recorded call for CN(C)CCNC(=O)c1ccc(Cl)c2cc3ccccc3nc12 ? class 0

Would you mind telling me which call this test gave COC(=O)CC(c1ccc2c(c1)OCO2)N1CCOCC1 (stereo unspecified) ? class 0

Short answer needed: outcome of this test for Nc1nc(SCC(=O)O)[nH]c(=O)c1N ? class 0

For O=[N+]([O-])c1cccnc1Sc1ncccn1 , what call appears in the results of this test? class 0

GET /call?item= CC[N+](CC)(CC)CCO returns the recorded outcome of this test. class 0

Record lookup: outcome of this test for CCCc1cc(=O)oc2c(C=O)c(O)cc(O)c12 ? class 0

I'd appreciate the recorded outcome for CCNc1nnc(-c2nsc3ccccc23)s1 from this test. class 0

# lookup: test call for C1C2CC3(CO3)C1C1OC21 (stereo unspecified) class 0

Entry CCCCCC(=O)C#Cc1ccccc1 : call = ? class 0

Test call for this compound, please: O=S1(=O)OCCOS(=O)(=O)C1I class 0

Outcome? COC(=O)CC1(O)C=C(C)C(=O)c2ccccc21 (stereo unspecified) class 0

Entry CC(=O)OC1CCC2(C)C(=CCC3C2CCC2(C)C(/C(C)=N/NC(N)=O)CCC32)C1 (stereo unspecified) : call = ? class 0

GET /call?item= Cc1ccc(NC(=O)OCC(F)(F)C(F)(F)C(F)(F)F)c(NC(=O)OCC(F)(F)C(F)(F)C(F)(F)F)c1 returns the recorded outcome of this test. class 0

Assay result, entry COC(=O)C1(C)CCCC2(C)C3CC(O)C(C(C)C)=CC3(O)CCC12 (stereo unspecified) — outcome? class 0

Assay outcome for O=C(c1ccccc1)c1cccnc1 : what was it? class 0

For N#C/C(=C/NC(=S)Nc1ccccc1)C(N)=O , what call appears in the results of this test? class 0

Hello, I am checking results. What call was entered for CC(CC(=O)Nc1ccc(NC(=O)CC(C)N=NC(N)=S)cc1)N=NC(N)=S (stereo unspecified) ? class 0

Write down the call the test reported for this compound. Item: CC1=CC(=O)C(C(C)C)CC1 (stereo unspecified) class 0

What outcome does the record of this test show for CC(=O)OC1COC(n2c(=S)n(-c3ccccc3)c(=O)c3cc(Br)ccc32)C(OC(C)=O)C1OC(C)=O (stereo unspecified) ? class 0

* * *

protocolDetails: NCI Yeast Anticancer Drug Screen. Data for the mlh1 rad18 strain (AID 175)
protocolConditions: S. cerevisiae mlh1 rad18 strain growth inhibition; at 50.0 µM; hits give high values
This is part of a sample that, as a whole, favours compounds with a hit. Of some 79,000 tested, about 15% had one in any assay. Calls of active or inactive are those of the source. Rule as the data show it: active = growth inhibition above about 70%; inactive = the rest.
propertyName: growth inhibition

// growth inhibition value for Nc1nc2c(c(-c3ccccc3Cl)n1)COC/C2=C\c1ccccc1Cl : 50% (inactive)

Summary for this compound, N=C(N)N1CCC(N2CCOCC2)CC1 : growth inhibition is -52.5% (inactive)

Value of measured growth inhibition for the entry Cc1cc2nc3c(C(O)C(O)C(O)CO)nn(-c4ccccc4)c3nc2cc1C (stereo not drawn) : 16.1% (inactive)

Just so you know, measured growth inhibition for NC(N)=NS(=O)(=O)c1ccc(NC(=O)c2cccn3c(=O)c4ccccc4nc23)cc1 came out at -20.9% (inactive)

Sure, the documented growth inhibition for Cc1cccc2sc(=S)[nH]c12 is 30.6% (inactive)

// growth inhibition value for CCC(=O)c1ccc2ccccc2c1 : -0.55% (inactive)

Item: O=C(O)c1cc(=O)c2cc3c(cc2o1)OCc1ccccc1-3 | growth inhibition: 3.55% (inactive)

Record CCOc1ccc(OCC)c2c1C(=O)c1ccccc1C2=O . Reported growth inhibition: -5.8% (inactive)

Reported growth inhibition for O=C(O)Cc1cc(CC(=O)O)cc(CC(=O)O)c1 was -17.9% (inactive)

For CN(C)c1ccc(/C=C(\C#N)c2ccc(F)cc2F)cc1 the compound record lists growth inhibition as -23.9% (inactive)

Briefly, growth inhibition measured for Clc1ccc(C=NC23CC4CC(CC(C4)C2)C3)cc1Cl : 12% (inactive)

For reference, reported growth inhibition for O=C1c2ccccc2-c2c1c1ccccc1c(=O)n2Cc1ccco1 stands at -18.9% (inactive)

Noted for CC(=O)c1cc2c(cc1C)C(C)=C(C)C2(C)C : its growth inhibition reads -2.9% (inactive)

Reported growth inhibition of COc1cc(/C=C/C(=N\NC(N)=S)c2sc(NNC(C)=O)nc2C)ccc1O : 14.8% (inactive)

Per the record, CCOC(=O)/C(C#N)=C/Nc1ccncc1 has growth inhibition of 16% (inactive)

growth inhibition reading for NC(=O)c1nsc(-c2ccc([N+](=O)[O-])cc2)c1N : -3.7% (inactive)

Consider NC(=O)C12OC1(Cl)CCCC2(Cl)Cl (stereo not drawn) . Its measured growth inhibition is 18.2% (inactive)

Entry under test: Cc1c(F)cc(I)cc1[N+](=O)[O-] . Its growth inhibition was -16.6% (inactive)

The recorded growth inhibition for entry C=C1C(=O)O[C@@H]2[C@H]3O[C@]3(C)CCC=C(C)CC[C@@H]12 equals -6.75% (inactive)

Recorded growth inhibition (compound C#CCOC(=O)c1ccc(OC(C)=O)cc1 ): -1.65% (inactive)

// field: growth inhibition; key: CC/C(Cl)=N\OC(=O)Nc1ccc(C#N)cc1 ; value = -10.4% (inactive)

Memo: Cc1cc(Nc2ccc(O)cc2)nc(Nc2ccc(O)cc2)n1 , reported growth inhibition: -2.3% (inactive)

growth inhibition recorded for this compound, CCOC(=O)c1ccc(NCC2CNc3ccccc3N2)cc1 (stereo not drawn) , is 18.2% (inactive)

Entry CCN(CC)CCCC(C)Nc1c2ccccc2nc2cc(Cl)cc(Cl)c12 (stereo not drawn) ; growth inhibition = 26.8% (inactive)

Briefly, growth inhibition measured for C1=CC([P+](Cc2ccccc2)(c2ccccc2)c2ccccc2)CC1 (stereo not drawn) : 52.9% (inactive)

// growth inhibition value for O=C1CC(C2OCOC3COCOC32)CC(=O)N1 (stereo not drawn) : -1.65% (inactive)

GET /value?item= COC(=O)c1ccc(CSc2ccccc2NC(=S)Nc2cccc(C(F)(F)F)c2)o1 &field=growth inhibition returns -7.6% (inactive)

# compound CC1(O)Oc2c(cc(C(C)(C)C)cc2C(C)(C)C)C1=O (stereo not drawn) ; its growth inhibition = 42.6% (inactive)

// CCOC(=O)C1C(=O)CC(O)(c2ccccc2)C(C(=O)OCC)C1c1ccc(OC)cc1 (stereo not drawn) : growth inhibition value = -3.7% (inactive)

Entry CCOC(CN=Cc1ccc2c(c1)Sc1ccccc1O2)OCC — recorded growth inhibition = 89.5% (active)

Field growth inhibition (entry Cc1nnc(N)c(C#N)c1C ) reads -1.85% (inactive)

Recorded growth inhibition (compound CN(C)CC(CN(C)C)C(=O)C(C)(C)C ): 13.8% (inactive)

// growth inhibition value for CCOC(CCc1c(C)nc[nH]c1=O)OCC : -7.9% (inactive)

Short answer for COC(c1ccccc1)c1ccccc1 : growth inhibition was -8% (inactive)

Reported growth inhibition for CCCO/N=[N+](\[O-])N(CC)CC was -1.45% (inactive)

Field growth inhibition (entry CN(Cc1ccccc1)C(=O)NC1CCCCC1 ) reads 2.55% (inactive)

Summary for this compound, O=C1CC2C(=O)N(Cc3ccccc3)C(=O)C2C(=O)N1 (stereo not drawn) : growth inhibition is 1.25% (inactive)

Note to self: growth inhibition recorded for CNC(=O)CN(CC(N)=O)C(=O)NC was -35% (inactive)

Looking up N#Cc1cccc(N2C(=O)c3c(c(-c4ccccc4)c(-c4ccc(Sc5ccc(-c6c(-c7ccccc7)c7c(c(-c8ccccc8)c6-c6ccccc6)C(=O)N(c6cccc(C#N)c6)C7=O)cc5)cc4)c(-c4ccccc4)c3-c3ccccc3)C2=O)c1 , I found its growth inhibition recorded as -60.8% (inactive)

Short answer for CCCC(O)C(C)[N+](=O)[O-] (stereo not drawn) : growth inhibition was 0.6% (inactive)

So for COc1cccc2c1C(=O)c1c(O)c3c(c(O)c1C2=O)C[C@@](O)(/C(C)=N\NC(=O)CCC(N)C(=O)O)C[C@@H]3OC1CC(N)C(O)C(C)O1 (stereo partly drawn) (tested in a mixture with another compound) , the logged growth inhibition turned out to be -46.7% (inactive)

growth inhibition in this record for Cc1occc1C(=S)Nc1ccc(Cl)c(/C=N/OC2CCCC2)c1 : 18.8% (inactive)

Summary for this compound, CC1(C)NC(c2ccccc2)c2ccsc2-n2cccc21 (stereo not drawn) : growth inhibition is -8.6% (inactive)

// growth inhibition lookup, compound = CC1C(C)C1(c1ccccc1)C(C)(C)O (stereo not drawn) , result: -3.45% (inactive)

Kindly note the recorded growth inhibition for CCN(CC)CC , which is 19.4% (inactive)

Looking up O=C(c1ccc(Cl)cc1)c1cccc(Cl)c1 , I see its growth inhibition listed as 6.3% (inactive)

Measured growth inhibition, O=C(Cc1ccccc1CCO)NCCc1ccccc1 : -14.9% (inactive)

According to the records, this compound C/C(Cc1ccccc1)=N\NC(N)=S displays growth inhibition of 29.5% (inactive)
